Taken from patent USRE48461E1.

Entries and their measured Percent inhibition of LMR20 cell proliferation follow.
# Tested on: LMR20 cells
# Assay Procedure: Proliferation of MDV3100-resistant LMR20 cells (MTT; with R1881 or DHT)
# Type: cell-based, human
# Measurement Conditions: CSS + R1881, ASO 0.20 μM, 5 days

TGATTTAATGGTTGCA [ISIS 569236] (cEt/MOE gapmer chemistry, further chemistry not given here) [targets intron 1]; 2%
TTGATTTAATGGTTGC [ISIS 560131] (MOE and (S)-cEt gapmer chemistry, further chemistry not given here) [targets intron 1]; 13%
GTTGATTTAATGGTTG (all phosphorothioate, sugars by position not given here; further chemistry not fully specified) [ISIS 549458]; 22%

Please examine the following record next.
# query: Percent inhibition of LMR20 cell proliferation of entry ACCAAGTTTCTTCAGC (LNA gapmer, phosphorothioate backbone, further chemistry not given here) [ISIS 554221, 3-10-3 LNA gapmer, phosphorothioate backbone, targeted to exon 4 of AR; benchmark, reference compound]
10%

----------
# Test system: AR mRNA
# Assay Procedure: Dose-dependent antisense inhibition of human AR in HuVEC cells (electroporation, qRT-PCR RTS3559, IC50)
# Assay type: cell-based
# Measurement Conditions: Table 34; HuVEC, electroporation, approximately 16 hours
Oligonucleotides are written 5' to 3', each unit as a sugar letter and its base; * is a phosphorothioate linkage, no mark a phosphodiester; rarer units and linkages stand in square brackets, end groups in braces. Plain capitals give the bases only. k = constrained ethyl (cEt); [5mC] = 5-methylcytosine; d = 2'-deoxy (DNA)
Measured Parameter: pIC50
Bear in mind: pIC50 is minus log10 of a mol/L concentration; give just that figure.

Worked set:
549372 (kA*kA*kG*dT*dT*dG*dT*dA*dG*dT*dA*dG*dT*k[5mC]*kG*k[5mC]) [compound 549372]; 6.49
584044 (k[5mC]*k[5mC]*k[5mC]*dT*dT*d[5mC]*dA*dG*d[5mC]*dG*dG*d[5mC]*dT*k[5mC]*kT*kT; antisense) [compound 584044]; 6.36

Please examine the following record next.
# query: pIC50 of entry 584006 (kA*k[5mC]*kA*d[5mC]*dA*dA*dG*dT*dG*dG*dG*dA*d[5mC]*kT*kG*kG; antisense) [compound 584006]
6.46

----------
# System: AR mRNA
# Assay Procedure: Antisense inhibition of human AR in HuVEC cells, single concentration (electroporation, qRT-PCR RTS3559)
# Type: cell-based
# Measurement Conditions: Table 25, 1,000 nM oligonucleotide, electroporation, approximately 24 hours, relative to untreated control
# Experimental: Antisense oligonucleotides were designed targeting an AR nucleic acid and were tested for their effects on AR mRNA in vitro. The antisense oligonucleotides were tested in a series of experiments that had similar culture conditions. […] AR mRNA levels were adjusted according to total RNA content, as measured by RIBOGREEN®. […] AR mRNA levels were adjusted according to total RNA content, as measured by RIBOGREEN®. […] AR mRNA levels were adjusted according to total RNA content, as measured by RIBOGREEN®. […]
Oligonucleotides are written 5' to 3', each unit as a sugar letter and its base; * is a phosphorothioate linkage, no mark a phosphodiester; rarer units and linkages stand in square brackets, end groups in braces. Plain capitals give the bases only. k = constrained ethyl (cEt); [5mC] = 5-methylcytosine; d = 2'-deoxy (DNA)
Each entry gets FALSE if its % inhibition stays under 60%, and TRUE if its % inhibition is 60% or above.

584274 (kG*kT*kT*dA*dT*d[5mC]*dT*dT*dA*d[5mC]*dT*d[5mC]*dT*k[5mC]*k[5mC]*k[5mC]; antisense) [compound 584274]; TRUE
584269 (k[5mC]*k[5mC]*kT*dT*dA*dT*dG*dG*dA*dT*dG*d[5mC]*dT*kG*k[5mC]*kT) [compound 584269]; FALSE
549458 (kG*kT*kT*dG*dA*dT*dT*dT*dA*dA*dT*dG*dG*kT*kT*kG) [compound 549458]; TRUE
584263 (kT*kA*kG*dG*dG*dT*dT*dT*dG*dG*dT*d[5mC]*dA*kG*kA*kA; antisense) [compound 584263]; FALSE
584233 (kG*kG*kA*dT*dT*d[5mC]*dT*d[5mC]*dT*dA*d[5mC]*dA*d[5mC]*kA*k[5mC]*kA; antisense) [compound 584233]; TRUE
584245 (kA*kG*kG*dT*dT*dA*dG*dG*dG*dA*dG*dT*dA*kG*kG*k[5mC]; antisense) [compound 584245]; TRUE

Reported % inhibition at or above 60%? 584242 (k[5mC]*k[5mC]*kA*dT*dT*dT*dG*dT*dG*d[5mC]*d[5mC]*dA*dA*kA*k[5mC]*k[5mC]; antisense) [compound 584242]
TRUE

----------
Entries and their measured Percent inhibition of cell proliferation follow.
# Tested on: C4-2B cells
# Assay Procedure: C4-2B cell proliferation by free uptake (MTT)
# Format: cell-based, human
# Measurement Conditions: dose 0.20 μM, day 6
Oligonucleotides are written 5' to 3', each unit as a sugar letter and its base; * is a phosphorothioate linkage, no mark a phosphodiester; rarer units and linkages stand in square brackets, end groups in braces. Plain capitals give the bases only. k = constrained ethyl (cEt); [5mC] = 5-methylcytosine; d = 2'-deoxy (DNA)
Respond numerically; units are % and should not be typed.

Worked set:
CTAAACTTCCCGTGGC (k[5mC]*kT*kA*dA*dA*d[5mC]*dT*dT*d[5mC]*d[5mC]*d[5mC]*dG*dT*kG*kG*k[5mC]) [ISIS 549434, targets 3'-end of exon 8]; 14
ACCAAGTTTCTTCAGC (LNA gapmer, phosphorothioate backbone, further chemistry not given here) [ISIS 554221, 3-10-3 LNA gapmer, phosphorothioate backbone, targeted to exon 4 of AR; benchmark, reference compound]; 10
GTTGATTTAATGGTTG (all phosphorothioate, sugars by position not given here; further chemistry not fully specified) [ISIS 549458]; 31

# query: Percent inhibition of cell proliferation of entry AAGTTGTAGTAGTCGC (kA*kA*kG*dT*dT*dG*dT*dA*dG*dT*dA*dG*dT*k[5mC]*kG*k[5mC]) [ISIS 549372, targets exon 1]
34

----------
# System: CWR22-RV1 cells
# Assay Procedure: CWR22-RV1 cell proliferation (CellTiter 96)
# Format: cell-based, human
# Measurement Conditions: RNAiMax, dose 50.0 nM, 6 days
Oligonucleotides are written 5' to 3', each unit as a sugar letter and its base; * is a phosphorothioate linkage, no mark a phosphodiester; rarer units and linkages stand in square brackets, end groups in braces. Plain capitals give the bases only. e = 2'-O-(2-methoxyethyl) (MOE); k = constrained ethyl (cEt); [5mC] = 5-methylcytosine; d = 2'-deoxy (DNA)
Measured Parameter: Percent inhibition of cell proliferation (%)
Respond numerically; units are % and should not be typed.

Worked set:
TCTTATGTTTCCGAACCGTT (sugars from the 5' end e5 d10 e5, backbone and methylation of C not given here) [ISIS 347526, reference compound]; 0
GTTGATTTAATGGTTG (all phosphorothioate, sugars by position not given here; further chemistry not fully specified) [ISIS 549458]; 40
ACCAAGTTTCTTCAGC (LNA gapmer, phosphorothioate backbone, further chemistry not given here) [ISIS 554221, 3-10-3 LNA gapmer, phosphorothioate backbone, targeted to exon 4 of AR; benchmark, reference compound]; 47
CTAAACTTCCCGTGGC (k[5mC]*kT*kA*dA*dA*d[5mC]*dT*dT*d[5mC]*d[5mC]*d[5mC]*dG*dT*kG*kG*k[5mC]) [ISIS 549434, targets 3'-end of exon 8]; 38

For the record AAGTTGTAGTAGTCGC (kA*kA*kG*dT*dT*dG*dT*dA*dG*dT*dA*dG*dT*k[5mC]*kG*k[5mC]) [ISIS 549372, targets exon 1] , what value of Percent inhibition of cell proliferation is listed for CWR22-RV1 cells?
53

----------
# Test system: AR mRNA
# Assay Procedure: Dose-dependent antisense inhibition of human AR in HuVEC cells (electroporation, qRT-PCR RTS3559, IC50)
# Format: cell-based
# Measurement Conditions: Table 35; HuVEC, electroporation, approximately 16 hours
Oligonucleotides are written 5' to 3', each unit as a sugar letter and its base; * is a phosphorothioate linkage, no mark a phosphodiester; rarer units and linkages stand in square brackets, end groups in braces. Plain capitals give the bases only. k = constrained ethyl (cEt); [5mC] = 5-methylcytosine; d = 2'-deoxy (DNA)
Entries and their measured IC50 follow.
Respond numerically; units are nM and should not be typed.

549458 (kG*kT*kT*dG*dA*dT*dT*dT*dA*dA*dT*dG*dG*kT*kT*kG) [compound 549458]; 190
584149 (kG*kT*k[5mC]*dA*dA*dT*dA*dT*d[5mC]*dA*dA*dA*dG*k[5mC]*kA*k[5mC]) [compound 584149]; 310
549372 (kA*kA*kG*dT*dT*dG*dT*dA*dG*dT*dA*dG*dT*k[5mC]*kG*k[5mC]) [compound 549372]; 420
584179 (kA*kT*kG*dA*dG*dT*d[5mC]*d[5mC]*dT*d[5mC]*dA*dG*dA*kA*kT*k[5mC]; antisense) [compound 584179]; 440
584148 (k[5mC]*kA*kT*dA*dT*dT*dA*dT*dT*dG*dT*dG*d[5mC]*kT*kG*k[5mC]; antisense) [compound 584148]; 200
584180 (kG*kT*kA*dG*dA*dT*dT*d[5mC]*dT*dA*dG*d[5mC]*dT*kT*kT*kG; antisense) [compound 584180]; 120

Please examine the following record next.
For the record 584183 (kA*k[5mC]*kA*dG*dG*d[5mC]*dT*d[5mC]*dT*dG*dA*d[5mC]*dT*kA*kG*kG; antisense) [compound 584183] , what value of IC50 is listed for AR mRNA?
310
